- testedTarget: Nav1.7 voltage-gated sodium channel (Homo sapiens, UniProt Q15858)
- Construct: Gene(s) encoding the full-length protein of the voltage-gated sodium channel of interest are cloned and expressed
- Sequence (Q15858 whole entry): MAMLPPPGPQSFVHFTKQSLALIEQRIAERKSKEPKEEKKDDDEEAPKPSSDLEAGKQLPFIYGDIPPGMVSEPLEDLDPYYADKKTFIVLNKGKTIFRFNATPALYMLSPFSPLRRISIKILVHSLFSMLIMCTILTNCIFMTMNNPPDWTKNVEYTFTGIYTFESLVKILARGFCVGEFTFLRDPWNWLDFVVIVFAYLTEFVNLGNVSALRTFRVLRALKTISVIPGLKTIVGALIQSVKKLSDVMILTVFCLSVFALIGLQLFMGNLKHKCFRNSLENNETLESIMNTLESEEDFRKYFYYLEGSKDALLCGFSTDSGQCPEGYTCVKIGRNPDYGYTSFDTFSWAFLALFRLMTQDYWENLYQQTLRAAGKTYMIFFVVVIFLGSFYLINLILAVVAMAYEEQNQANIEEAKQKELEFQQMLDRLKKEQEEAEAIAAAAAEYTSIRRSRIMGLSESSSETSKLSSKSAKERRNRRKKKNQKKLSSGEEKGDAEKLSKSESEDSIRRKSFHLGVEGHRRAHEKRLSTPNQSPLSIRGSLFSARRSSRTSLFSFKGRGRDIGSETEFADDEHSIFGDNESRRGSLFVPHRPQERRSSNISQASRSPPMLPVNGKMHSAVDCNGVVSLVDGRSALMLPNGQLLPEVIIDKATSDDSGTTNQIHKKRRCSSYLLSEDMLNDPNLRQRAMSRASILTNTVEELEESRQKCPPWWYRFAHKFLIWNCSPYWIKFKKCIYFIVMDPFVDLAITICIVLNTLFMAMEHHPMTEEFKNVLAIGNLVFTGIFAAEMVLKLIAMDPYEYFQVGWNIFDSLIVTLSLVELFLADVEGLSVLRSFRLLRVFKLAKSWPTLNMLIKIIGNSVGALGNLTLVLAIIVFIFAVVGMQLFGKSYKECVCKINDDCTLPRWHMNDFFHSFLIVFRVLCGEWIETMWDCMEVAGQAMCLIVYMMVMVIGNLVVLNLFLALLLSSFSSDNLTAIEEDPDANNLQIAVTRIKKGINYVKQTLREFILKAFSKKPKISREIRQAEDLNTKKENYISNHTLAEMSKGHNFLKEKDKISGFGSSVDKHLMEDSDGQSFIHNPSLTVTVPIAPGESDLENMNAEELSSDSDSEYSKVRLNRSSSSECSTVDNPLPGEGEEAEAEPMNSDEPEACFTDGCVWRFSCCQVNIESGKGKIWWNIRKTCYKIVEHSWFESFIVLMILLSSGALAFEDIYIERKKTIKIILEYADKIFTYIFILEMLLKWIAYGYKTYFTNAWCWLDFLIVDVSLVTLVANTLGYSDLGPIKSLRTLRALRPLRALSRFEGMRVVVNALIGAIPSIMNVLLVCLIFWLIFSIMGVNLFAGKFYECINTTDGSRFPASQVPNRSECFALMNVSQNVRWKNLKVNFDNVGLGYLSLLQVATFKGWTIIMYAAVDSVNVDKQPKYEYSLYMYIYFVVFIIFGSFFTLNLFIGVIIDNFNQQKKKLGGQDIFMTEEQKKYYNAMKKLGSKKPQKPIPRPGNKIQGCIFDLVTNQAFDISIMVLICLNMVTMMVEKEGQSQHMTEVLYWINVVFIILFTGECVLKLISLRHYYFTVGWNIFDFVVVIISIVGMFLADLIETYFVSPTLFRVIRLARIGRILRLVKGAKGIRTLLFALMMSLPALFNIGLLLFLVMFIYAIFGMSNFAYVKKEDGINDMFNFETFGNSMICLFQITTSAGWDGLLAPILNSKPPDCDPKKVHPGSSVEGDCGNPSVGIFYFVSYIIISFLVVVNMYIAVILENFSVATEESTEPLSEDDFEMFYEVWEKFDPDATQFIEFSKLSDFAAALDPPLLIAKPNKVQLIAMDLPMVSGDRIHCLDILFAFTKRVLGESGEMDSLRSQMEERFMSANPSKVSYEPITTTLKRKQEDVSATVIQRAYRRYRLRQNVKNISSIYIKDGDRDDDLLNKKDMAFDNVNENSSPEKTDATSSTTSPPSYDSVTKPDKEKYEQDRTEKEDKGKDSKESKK
- assayNotes: Whole-cell voltage clamp electrophysiology assay
- condition: cells stably expressing the voltage-gated sodium channel of interest
pIC50: −log10 of the molar value.
# pIC50 >= 6 gives YES, anything below gives NO

Problem: # bool: pIC50 of `O=C(N[C@@H]1CCc2cccc(-c3ccncc3F)c2C1)c1ccc(OCC(F)(F)F)nc1` >= 6
Result: YES

Problem: # bool: pIC50 of `COc1ncc(-c2cccc3c2C[C@H](NC(=O)c2ccc(OC(C)C)nc2)CO3)cc1C(=O)N(C)C` >= 6
Result: NO

Problem: # bool: pIC50 of `Cc1noc(C)c1-c1cccc2c1C[C@H](NC(=O)c1cnc(OC3CCCC3)nc1)CC2` >= 6
Result: YES

Problem: # bool: pIC50 of `Cc1ncc(-c2cccc3c2C[C@H](NC(=O)c2ccc(OC4CCC4)nc2)CO3)cn1` >= 6
Result: YES

Problem: # bool: pIC50 of `COc1cc(-c2cccc3c2C[C@H](NC(=O)c2ccc(OCC(F)(F)F)nc2)CO3)c(OC)nn1` >= 6
Result: NO

Problem: # bool: pIC50 of `Cc1ncc(-c2cccc3c2C[C@H](NC(=O)c2ccc(OCCC(F)(F)F)nc2)CO3)cn1` >= 6
Result: YES

Problem: # bool: pIC50 of `Cc1ncc(-c2cccc3c2C[C@H](NC(=O)c2ccnc(OC(C)C)c2)CO3)cn1` >= 6
Result: NO

Problem: # bool: pIC50 of `COc1ncc(-c2cccc3c2C[C@H](NC(=O)c2ccc(COCC(F)(F)F)nc2)CO3)cc1F` >= 6
Result: YES

Problem: # bool: pIC50 of `Cn1ccnc1COc1ccc(C(=O)N[C@@H]2COc3cccc(-c4ccncc4)c3C2)cn1` >= 6
Result: NO

Problem: # bool: pIC50 of `O=C(N[C@@H]1COc2cccc(-c3cnc(C4CC4)nc3)c2C1)c1ccn(CCC(F)(F)F)c(=O)c1` >= 6
Result: YES

Problem: # bool: pIC50 of `Cc1ncc(-c2cccc3c2C[C@H](NC(=O)c2ccc(C(=O)NCCCOC(C)C)nc2)CO3)cn1` >= 6
Result: NO

Problem: # bool: pIC50 of `Cc1ncc(-c2cccc3c2C[C@H](NC(=O)c2ccc(COCC(F)(F)F)nc2)CO3)cn1` >= 6
Result: YES

Problem: # bool: pIC50 of `CC(C)COc1ccc(C(=O)N[C@@H]2COc3cccc(-c4ccncc4)c3C2)cn1` >= 6
Result: YES

Problem: # bool: pIC50 of `CCCCOc1ccc(C(=O)N[C@@H]2COc3cccc(-c4ccncc4)c3C2)cc1` >= 6
Result: YES

Problem: # bool: pIC50 of `COCCn1nc(C)c(C(=O)N[C@@H]2COc3cccc(-c4cccnc4)c3C2)n1` >= 6
Result: NO

Problem: # bool: pIC50 of `Cc1ncc(-c2cccc3c2C[C@H](NC(=O)c2ccc(OCC(F)(F)F)nc2)CO3)cn1` >= 6
Result: YES

Problem: # bool: pIC50 of `O=C(N[C@@H]1COc2cccc(-c3cnc(C4CC4)nc3)c2C1)c1ccc(OCCOCC(F)(F)F)nc1` >= 6
Result: YES

Problem: # bool: pIC50 of `COCCOc1ccc(C(=O)N[C@@H]2COc3cccc(-c4ccc(F)nc4)c3C2)cn1` >= 6
Result: NO

Problem: # bool: pIC50 of `CC#CCOc1ccc(C(=O)N[C@@H]2CCc3cccc(-c4cnc(OC)nc4)c3C2)cn1` >= 6
Result: NO

---

- testedTarget: Nav1.7 voltage-gated sodium channel (Homo sapiens)
- Construct: Gene(s) encoding the full-length protein of the voltage-gated sodium channel of interest are cloned and expressed
- assayNotes: Whole-cell voltage clamp electrophysiology assay
- condition: cells stably expressing the voltage-gated sodium channel of interest
Please provide measured pIC50 for the entries that follow.
Scale explanation: pIC50 corresponds to minus log10 of a concentration expressed in moles per litre.

Problem: Input `Cc1cncc(-c2cccc3c2C[C@H](NC(=O)c2ccc(OCC(F)(F)F)nc2)CO3)n1` , output reported pIC50.
Result: 6.40

Problem: Input `CCCN(CCC)C(=O)c1ccc(C(=O)N[C@@H]2COc3cccc(-c4cnc(OC)nc4)c3C2)cn1` , output reported pIC50.
Result: 5.70

Problem: Input `Cc1ncc(-c2cccc3c2C[C@H](NC(=O)c2cnc(NCCC(F)(F)F)nc2)CO3)cn1` , output reported pIC50.
Result: 6.40

Problem: Input `COc1ncc(-c2cccc3c2C[C@H](NC(=O)c2cnc(OCC(F)(F)F)nc2C)CO3)cn1` , output reported pIC50.
Result: 5.70

Problem: Input `O=C(N[C@@H]1COc2cccc(-c3ccncc3)c2C1)c1ccc(OCc2cccnc2)nc1` , output reported pIC50.
Result: 5.70

Problem: Input `COc1ncc(-c2cccc3c2C[C@H](NC(=O)c2ccc(OC4CCOCC4)nc2)CC3)cn1` , output reported pIC50.
Result: 5.70

---

- testedTarget: Nav1.7 voltage-gated sodium channel (Homo sapiens)
- Construct: Gene(s) encoding the full-length protein of the voltage-gated sodium channel of interest are cloned and expressed
- assayNotes: Whole-cell voltage clamp electrophysiology assay
- condition: cells stably expressing the voltage-gated sodium channel of interest
pIC50: −log10 of the molar value.
# pIC50 >= 6 gives 1, anything below gives -1

Problem: # bool: pIC50 of COc1ncc(-c2cccc3c2C[C@H](NC(=O)c2ccc(OCC4CCCO4)nc2)CO3)cn1 (stereo partly shown) [Example 121] >= 6
Result: -1

Problem: # bool: pIC50 of CC#CCOc1ccc(C(=O)N[C@@H]2COc3cccc(-c4cnc(OC)nc4)c3C2)cn1 [Example 124] >= 6
Result: 1

Problem: # bool: pIC50 of Cc1ncc(-c2cccc3c2C[C@H](NC(=O)c2ccc(OC4CCCOC4)nc2)CC3)cn1 (stereo partly shown) [Example 160] >= 6
Result: -1

Problem: # bool: pIC50 of COc1ncc(-c2cccc3c2C[C@H](NC(=O)c2ccc(OCCC(F)(F)F)nc2)CC3)cn1 [Example 84] >= 6
Result: 1

Problem: # bool: pIC50 of CS(=O)(=O)c1ccc(-c2cccc3c2C[C@H](NC(=O)c2ccc(OCCOCC(F)(F)F)nc2)CO3)cn1 [Example 175] >= 6
Result: -1

Problem: # bool: pIC50 of O=C(N[C@@H]1COc2cccc(-c3cnc(C4CC4)nc3)c2C1)c1ccc(C(=O)NCCC(F)(F)F)nc1 [Example 197] >= 6
Result: 1

Problem: # bool: pIC50 of O=C(N[C@@H]1COc2cccc(-c3ccc4nccn4c3)c2C1)c1ccc(OC2CCOCC2)nc1 [Example 169] >= 6
Result: 1

Problem: # bool: pIC50 of O=C(N[C@@H]1COc2cccc(-c3ccncc3)c2C1)c1ccc(OCc2cnccn2)nc1 [Example 120] >= 6
Result: -1

Problem: # bool: pIC50 of Cc1nn(-c2ccccc2)nc1C(=O)N[C@@H]1CCc2cccc(-c3ccncc3)c2C1 [Example 17] >= 6
Result: -1

Problem: # bool: pIC50 of COc1ccc(-c2cccc3c2C[C@H](NC(=O)c2ccc(OC(C)C)nc2)CO3)cn1 [Example 76] >= 6
Result: 1

Problem: # bool: pIC50 of COc1ncc(-c2cccc3c2C[C@H](NC(=O)c2cnc(OCC(F)(F)F)nc2C)CC3)cn1 [Example 90] >= 6
Result: -1

Problem: # bool: pIC50 of CC(C)Oc1ccc(C(=O)N[C@@H]2COc3cccc(-c4ccnc(F)c4)c3C2)cn1 [Example 62] >= 6
Result: 1

Problem: # bool: pIC50 of Cc1ncc(-c2cccc3c2C[C@H](NC(=O)c2ccc(C(=O)NCCCC(F)(F)F)nc2)CO3)cn1 [Example 188] >= 6
Result: 1

Problem: # bool: pIC50 of Cc1nn(CC(C)C)nc1C(=O)N[C@@H]1COc2cccc(-c3cccnc3)c2C1 [Example 52] >= 6
Result: -1

Problem: # bool: pIC50 of O=C(N[C@@H]1COc2cccc(-c3ccncc3)c2C1)c1cnc(OC2CCCC2)nc1 [Example 28] >= 6
Result: 1

---

- testedTarget: Nav1.7 voltage-gated sodium channel (Homo sapiens)
- Construct: Gene(s) encoding the full-length protein of the voltage-gated sodium channel of interest are cloned and expressed; expressed in transfected cells
- assayNotes: Whole-cell voltage clamp electrophysiology assay
- Format: cell-based
- condition: cells stably expressing the voltage-gated sodium channel of interest
quantityMeasured: pIC50
Scale explanation: pIC50 corresponds to minus log10 of a concentration expressed in moles per litre.

Problem: Report measured pIC50 on Nav1.7 voltage-gated sodium channel (Homo sapiens); entry: `COc1ncc(-c2cccc3c2C[C@H](NC(=O)c2ccc(C(=O)N(C)CC(F)(F)F)nc2)CO3)cn1`
Result: 6.10

Problem: Report measured pIC50 on Nav1.7 voltage-gated sodium channel (Homo sapiens); entry: `O=C(N[C@@H]1COc2cccc(-c3ccncc3)c2C1)c1ccc(OC2CCC2)nc1`
Result: 6.80

Problem: Report measured pIC50 on Nav1.7 voltage-gated sodium channel (Homo sapiens); entry: `Cc1cncc(-c2cccc3c2C[C@H](NC(=O)c2ccc(OCCOCC(F)(F)F)nc2)CO3)n1`
Result: 7.20

Problem: Report measured pIC50 on Nav1.7 voltage-gated sodium channel (Homo sapiens); entry: `Cc1noc(C)c1-c1cccc2c1C[C@H](NC(=O)c1ccc(OC(C)C)nc1)CC2`
Result: 5.60

Problem: Report measured pIC50 on Nav1.7 voltage-gated sodium channel (Homo sapiens); entry: `O=C(N[C@@H]1COc2cccc(-c3ccc(CO)nc3)c2C1)c1ccc(OCCOCC(F)(F)F)nc1`
Result: 7.00
